test system: TK-10 renal; assay: NCI tumour cell line growth inhibition, 48 h
readout: TGI

Task: What reported TGI corresponds to Cn1nnc2c(C(N)=O)ncn2c1=O on TK-10 renal?
Output: > 100 µM

Task: What reported TGI corresponds to CSc1nc(C#N)c(N)n1C on TK-10 renal?
Output: > 100 µM

Task: What reported TGI corresponds to NC(=O)c1cccc(-c2cc(C(N)=O)ccc2Cl)c1 on TK-10 renal?
Output: > 100 µM

Task: What reported TGI corresponds to COc1cccc(NC(=O)CC(=O)NNCC(=O)Nc2nnc(-c3ccc(N(CCC#N)S(=O)(=O)c4ccccc4)cc3)s2)c1 on TK-10 renal?
Output: > 100 µM

Task: What reported TGI corresponds to N#CC12C(=O)N3C(=NC(c4ccccc4)NC3c3ccccc3)C1(C#N)C(c1ccccc1)NC1=C2CCCC1 (stereo unspecified) on TK-10 renal?
Output: > 100 µM

Task: What reported TGI corresponds to S=C(N/N=C\c1ccccn1)N(Cc1ccccn1)Cc1ccccn1 on TK-10 renal?
Output: 17.6 µM
